# assay_summary: Plasma pharmacokinetics following oral dose administration to male Wistar Han rats
# Assay type: in vivo
# conditions: male, Wistar Han, in vivo; rat, oral gavage, 150 mg/kg (measured dose 204 mg/kg), plasma
metric_name: half-life (min)

1) C=C(C)[C@@H]1CCC(C)=C[C@H]1c1c(O)cc(-c2cnn(C)c2)cc1O = 258

====

# assay_summary: Plasma pharmacokinetics following oral dose administration to male Wistar Han rats
# Format: in vivo
# conditions: male, Wistar Han, rat, in vivo, po, 15 mg/kg, oral gavage, 15 mg/kg (measured dose 15 mg/kg), plasma
metric_name: Tmax

1) C=C(C)[C@@H]1CCC(C)=C[C@H]1c1c(O)cc(-c2cnn(C)c2)cc1O [Compound 1] = 1 h

These data points were gathered from patent US12534438B2.
